Test system: wheat
METHOD DESCRIPTION: Test B postemergence herbicide test
Format: in vivo, Triticum aestivum
Set-up: key: 0 = no effect, 100 = complete control
CONDITION LABEL: postemergence, 500 g ai/ha; scale 0 to 100, 0 is no effect, 100 is complete control
# Lookup of reported Wheat plant response rating keyed by entry
Write the number on its own, no unit after it.

Example entries and their recorded answers appear below.
INSERT INTO measurements (compound, measure, observed_value) VALUES
  ('CCNC(=S)c1ccc(F)c(NC(=O)c2cc(C(C)(C)C)nn2CC)c1', 'Wheat plant response rating', 10),
  ('CCn1nc(C(C)(C)C)cc1C(=O)Nc1ccnc(C(=O)NCCF)c1', 'Wheat plant response rating', 30),
  ('CCNC(=O)c1ccc(F)c(NC(=O)c2c(F)c(C(C)(C)C)nn2CC)c1', 'Wheat plant response rating', 30);

Inquiry: API: value(readout=Wheat plant response rating, system=wheat) for record CCC1=NN(C(C)(C)C)CC1C(=O)Nc1cc(C(=O)N2CCCC2)ccc1F (racemic)
Reply text: 20

Inquiry: Observed Wheat plant response rating on wheat for C#CCNC(=O)c1cncc(NC(=O)c2cc(C(C)(C)C)nn2CC)c1 , please.
Reply text: 10
